This collection of values is drawn from paper PMC6550519.

# System: NicR2 (Pseudomonas putida S16)
# Protocol Summary: ITC
# Stated Conditions: EMSA: 10 mM Tris-HCl, 100 mM NaCl, 27 nM DNA, 180 nM NicR2, 30 min room temperature, 9% native PAGE; ITC: PBS, 64 uM NicR2 in cell, 100 uM DNA titrant …
Readout Name: pKd
Answers are plain numbers, as −log10 of the molar value.

Below are worked cases with known answers.
{"columns": ["Sequence Chain", "Study System", "pKd"],
 "data": [
  ["CACTAATTATACCGTCGTACATAGAATAAA (double strand) [R-m3 30 bp]", "NicR2 (Pseudomonas putida S16)", 5.74],
  ["CACTAATTATACCGTCGTACATATAATAAA (double strand) [wild type 30 bp (Pspm inverted repeat)]", "NicR2 (Pseudomonas putida S16)", 6.74],
  ["CACTAATTATACCGTCGTACATATCCTAAA (double strand) [R-m12 30 bp]", "NicR2 (Pseudomonas putida S16)", 6.85]
]}

Kindly review the next sequence as well.
Query :: Tell us which pKd value is on record for CACTAATTATACCGTCGTACATCTAATAAA (double strand) [R-m4 30 bp]
Result :: 6.24
